System: Klebsiella pneumoniae CRKP HS11286
assaySummary: microbe, parasite or virus in culture
Type: cell-based
conditionInfo: CRKP HS11286, 16 h
Bridge positions count the residues as written; N and C are the ends. Square brackets hold non-standard residues; d marks the D form. Peptide text beside a SMILES is read from it. * marks the point of attachment. Myristoyl = CCCCCCCCCCCCCC(=O)*; Orn = NCCC[C@H](N)C(=O)O; Dab = NCC[C@H](N)C(=O)O; Dap = NC[C@H](N)C(=O)O
Listing of entries alongside the reported MIC Klebsiella pneumoniae CRKP HS11286.

State its MIC Klebsiella pneumoniae CRKP HS11286 on Klebsiella pneumoniae CRKP HS11286: CCCCCCCCCCCCCC(=O)N[C@@H](CN)C(=O)N[C@H](C(=O)N[C@@H](CC(C)C)C(=O)N[C@@H](CO)C(=O)N[C@@H](CCN)C(=O)N[C@@H](CN)C(=O)N[C@@H](Cc1ccccc1)C(=O)N[C@H](C(=O)N[C@@H](CCCN)C(=O)N[C@@H](CC(N)=O)C(=O)N[C@@H](Cc1ccccc1)C(=O)O)[C@@H](C)CC)[C@@H](C)O [synAQU5-L] (Myristoyl-[Dap]TLS[Dab][Dap]FI[Orn]NF-OH)
4 µg/mL

Proceed to the following item.
Lookup: MIC Klebsiella pneumoniae CRKP HS11286 / Klebsiella pneumoniae CRKP HS11286 / CCCCCCCCCCCCCC(=O)N[C@@H](Cc1ccccc1)C(=O)N[C@@H](CCCN)C(=O)N[C@H]1CCCNC(=O)CNC(=O)[C@H](CCN)NC(=O)[C@@H](Cc2ccc(O)cc2)NC(=O)[C@H](CC(C)C)NC(=O)[C@H]([C@@H](C)CC)NC(=O)[C@@H](C(C)C)NC1=O [synAQU2-C3] (Myristoyl-F[Orn][Orn][dV]IL[dY][Dab]G; lactam 3-C)
> 64 µg/mL

###

Tested on: Escherichia coli DH5α
assaySummary: MIC assay (broth micro-dilution)
Format: cell-based
conditionInfo: Table S11; LB broth, 37 °C, 16 h, n = 2
Bridge positions count the residues as written; N and C are the ends. Square brackets hold non-standard residues; d marks the D form. Peptide text beside a SMILES is read from it. * marks the point of attachment. Myristoyl = CCCCCCCCCCCCCC(=O)*; Orn = NCCC[C@H](N)C(=O)O; Dab = NCC[C@H](N)C(=O)O; Dap = NC[C@H](N)C(=O)O
recordedEndpoint: MIC Escherichia coli DH5α (µg/mL)
Write the value in µg/mL as a bare number.

Report MIC Escherichia coli DH5α for CCCCCCCCCCCCCC(=O)N[C@@H](CN)C(=O)N[C@H](C(=O)N[C@@H](CC(C)C)C(=O)N[C@H]1COC(=O)[C@H](Cc2ccccc2)NC(=O)[C@H](CC(N)=O)NC(=O)[C@H](CCCN)NC(=O)[C@H]([C@@H](C)CC)NC(=O)[C@H](Cc2ccccc2)NC(=O)[C@H](CN)NC(=O)[C@H](CCN)NC1=O)[C@@H](C)O [synAQU5-C4] (Myristoyl-[Dap]TLS[Dab][Dap]FI[Orn]NF; ester 4-C) please.
8

###

# MIC Klebsiella pneumoniae NCTC 5056 annotations
Tested on: Klebsiella pneumoniae NCTC 5056
assaySummary: microbe, parasite or virus in culture
Assay type: cell-based
conditionInfo: NCTC 5056, 16 h
Bridge positions count the residues as written; N and C are the ends. Square brackets hold non-standard residues; d marks the D form. Peptide text beside a SMILES is read from it. * marks the point of attachment. Myristoyl = CCCCCCCCCCCCCC(=O)*; Orn = NCCC[C@H](N)C(=O)O; Dab = NCC[C@H](N)C(=O)O; Dap = NC[C@H](N)C(=O)O
Value expressed in µg/mL; do not type the unit.

Param readout= MIC Klebsiella pneumoniae NCTC 5056; system= Klebsiella pneumoniae NCTC 5056; entry= CCCCCCCCCCCCCC(=O)N[C@@H](Cc1ccccc1)C(=O)N[C@@H](CCCN)C(=O)N[C@H]1CCCNC(=O)CNC(=O)[C@H](CCN)NC(=O)[C@@H](Cc2ccc(O)cc2)NC(=O)[C@H](CC(C)C)NC(=O)[C@H]([C@@H](C)CC)NC(=O)[C@@H](C(C)C)NC1=O [synAQU2-C3] (Myristoyl-F[Orn][Orn][dV]IL[dY][Dab]G; lactam 3-C) ; returns value.
32

# ---- query molecule ----
Record CCCCCCCCCCCCCC(=O)N[C@@H](CN)C(=O)N[C@H](C(=O)N[C@@H](CC(C)C)C(=O)N[C@@H](CO)C(=O)N[C@@H](CCN)C(=O)N[C@@H](CN)C(=O)N[C@@H](Cc1ccccc1)C(=O)N[C@H](C(=O)N[C@@H](CCCN)C(=O)N[C@@H](CC(N)=O)C(=O)N[C@@H](Cc1ccccc1)C(=O)O)[C@@H](C)CC)[C@@H](C)O [synAQU5-L] (Myristoyl-[Dap]TLS[Dab][Dap]FI[Orn]NF-OH) : what is its MIC Klebsiella pneumoniae NCTC 5056 with Klebsiella pneumoniae NCTC 5056?
8

###

System: Acinetobacter baumannii P53
assaySummary: microbe, parasite or virus in culture
Type: cell-based
conditionInfo: Table S11; LB broth, 37 °C, 16 h, n = 2
Bridge positions count the residues as written; N and C are the ends. Square brackets hold non-standard residues; d marks the D form. Peptide text beside a SMILES is read from it. * marks the point of attachment. Myristoyl = CCCCCCCCCCCCCC(=O)*; X2 = NC[C@H](Cc1ccc(O)cc1)N*; dOrn = NCCC[C@@H](N)C(=O)O; X1 = CC(C)[C@H](O)CC(=O)*; Orn = NCCC[C@H](N)C(=O)O; Dab = NCC[C@H](N)C(=O)O; βAla = NCCC(=O)O
Below, each entry is listed with its recorded MIC Acinetobacter baumannii P53.

// query MIC Acinetobacter baumannii P53 value for entry CC[C@H](C)[C@H](NC(=O)[C@@H](NC(=O)[C@@H](C)NC(=O)[C@H](C)NC(=O)[C@@H](NC(=O)C[C@@H](O)C(C)C)C(C)C)[C@@H](C)CC)C(=O)NCCC(=O)N[C@@H](CC(C)C)C(=O)N[C@H](C)C(=O)N[C@H](C(=O)N[C@H](CN)Cc1ccc(O)cc1)[C@@H](C)CC [synAQU4-L] (X1-VA[dA]II[βAla]L[dA]I-X2)
> 64 µg/mL

Further cases:
What value of MIC Acinetobacter baumannii P53 has been reported for the following molecule? CCCCCCCCCCCCCC(=O)N[C@@H](CCCN)C(=O)N[C@H](Cc1ccc(O)cc1)C(=O)N[C@@H](C(=O)N[C@H]1C(=O)N[C@H](CCCN)C(=O)N[C@@H](CCCN)C(=O)N[C@H](C(C)C)C(=O)N[C@@H]([C@@H](C)CC)C(=O)N[C@@H](CC(C)C)C(=O)N[C@H](CCCN)C(=O)N[C@@H]([C@@H](C)O)C(=O)N[C@@H](C)C(=O)O[C@H]1C)C(C)C [synAQU6-C4] (Myristoyl-[Orn][dY][dV][dT][dOrn][Orn][dV]IL[dOrn]TA; ester 4-C)
> 64 µg/mL

Fill blank: measured MIC Acinetobacter baumannii P53 of the molecule CCCCCCCCCCCCCC(=O)N[C@@H](Cc1ccccc1)C(=O)N[C@@H](CCCN)C(=O)N[C@H]1CCCNC(=O)CNC(=O)[C@H](CCN)NC(=O)[C@@H](Cc2ccc(O)cc2)NC(=O)[C@H](CC(C)C)NC(=O)[C@H]([C@@H](C)CC)NC(=O)[C@@H](C(C)C)NC1=O [synAQU2-C3] (Myristoyl-F[Orn][Orn][dV]IL[dY][Dab]G; lactam 3-C) is ____.
8 µg/mL

###

// reported MIC Acinetobacter baumannii 1104008 for each item listed
System: Acinetobacter baumannii 1104008
assaySummary: microbe, parasite or virus in culture
Format: cell-based
conditionInfo: Table S11; LB broth, 37 °C, 16 h, n = 2
Bridge positions count the residues as written; N and C are the ends. Square brackets hold non-standard residues; d marks the D form. Peptide text beside a SMILES is read from it. * marks the point of attachment. Myristoyl = CCCCCCCCCCCCCC(=O)*; dOrn = NCCC[C@@H](N)C(=O)O; Orn = NCCC[C@H](N)C(=O)O; Dab = NCC[C@H](N)C(=O)O; Dap = NC[C@H](N)C(=O)O
Numbers only; they are read as µg/mL.

So what does the record say about MIC Acinetobacter baumannii 1104008 for CCCCCCCCCCCCCC(=O)N[C@@H](CCCN)C(=O)N[C@H](Cc1ccc(O)cc1)C(=O)N[C@@H](C(=O)N[C@H]1C(=O)N[C@H](CCCN)C(=O)N[C@@H](CCCN)C(=O)N[C@H](C(C)C)C(=O)N[C@@H]([C@@H](C)CC)C(=O)N[C@@H](CC(C)C)C(=O)N[C@H](CCCN)C(=O)N[C@@H]([C@@H](C)O)C(=O)N[C@@H](C)C(=O)O[C@H]1C)C(C)C [synAQU6-C4] (Myristoyl-[Orn][dY][dV][dT][dOrn][Orn][dV]IL[dOrn]TA; ester 4-C) ?
32

Further cases:
Could you tell me which MIC Acinetobacter baumannii 1104008 is on file for CCCCCCCCCCCCCC(=O)N[C@@H](CN)C(=O)N[C@H](C(=O)N[C@@H](CC(C)C)C(=O)N[C@@H](CO)C(=O)N[C@@H](CCN)C(=O)N[C@@H](CN)C(=O)N[C@@H](Cc1ccccc1)C(=O)N[C@H](C(=O)N[C@@H](CCCN)C(=O)N[C@@H](CC(N)=O)C(=O)N[C@@H](Cc1ccccc1)C(=O)O)[C@@H](C)CC)[C@@H](C)O [synAQU5-L] (Myristoyl-[Dap]TLS[Dab][Dap]FI[Orn]NF-OH) ?
4
